- Test: Pharmacokinetic profile, plasma concentrations by LC/MS/MS
- Assay type: in vivo, female Crl: CD1 mice
- Assay conditions: female, Crl: CD1, mouse, plasma, ip, 30 mg/kg, IP administration; read-out: half life (t1/2)
Endpoint name: half-life

Compound string | Endpoint name | Value reported
CC(C)=CCC/C(C)=C/CC/C(C)=C/CN1C(=O)c2cccc(O)c2N(C)c2c(O)cc(O)cc21 | half-life | > 40 h

----------
- Tested on: 36 cancer cell lines
- Test: Anticancer activity profiling against 36 cell lines (IC50)
- Type: cell-based
- Assay conditions: Renal, cell line 944L (Xenograft), hypernephroma; read-out: IC50

Molecule | Test target | IC50 (nM)
CC(C)=CCC/C(C)=C/CC/C(C)=C/CN1C(=O)c2cccc(O)c2N(C)c2c(O)cc(O)cc21 [Compound 2] | 36 cancer cell lines | 230
